# credit: paper PMC4013053

Documented pIC50 across a set of molecules
measured-on: TLR2 (Homo sapiens, UniProt O60603)
Sequence (O60603 21-784): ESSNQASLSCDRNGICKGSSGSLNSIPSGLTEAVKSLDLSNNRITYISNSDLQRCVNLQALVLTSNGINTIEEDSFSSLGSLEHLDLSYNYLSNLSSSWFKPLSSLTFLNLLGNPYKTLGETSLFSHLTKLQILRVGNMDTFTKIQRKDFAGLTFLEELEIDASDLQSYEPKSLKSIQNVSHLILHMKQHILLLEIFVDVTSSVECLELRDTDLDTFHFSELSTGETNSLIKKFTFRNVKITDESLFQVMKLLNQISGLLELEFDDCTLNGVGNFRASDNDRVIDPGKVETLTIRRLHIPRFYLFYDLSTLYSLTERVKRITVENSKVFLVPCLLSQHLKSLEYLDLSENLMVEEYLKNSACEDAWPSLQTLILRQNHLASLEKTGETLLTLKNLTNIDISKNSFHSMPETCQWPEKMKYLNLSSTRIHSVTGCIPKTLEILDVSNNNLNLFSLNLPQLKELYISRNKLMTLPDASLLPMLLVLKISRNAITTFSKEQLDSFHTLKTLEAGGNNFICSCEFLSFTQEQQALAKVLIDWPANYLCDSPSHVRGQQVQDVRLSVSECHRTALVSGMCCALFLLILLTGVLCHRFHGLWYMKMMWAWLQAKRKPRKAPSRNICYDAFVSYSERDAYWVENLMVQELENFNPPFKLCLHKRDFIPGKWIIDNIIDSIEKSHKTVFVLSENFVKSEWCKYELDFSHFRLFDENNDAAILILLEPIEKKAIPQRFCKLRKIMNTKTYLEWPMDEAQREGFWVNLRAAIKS
assay: Pam2CSK4-stimulated IL-8 release in 293/hTLR2 cells
Assay type: cell-based
run-parameters: IL-8 released into medium
pIC50: −log10 of the molar value.

Some solved entries appear below for comparison.
1. Cc1nc2ccccc2c(=O)n1-c1ccc(Cl)c(NS(=O)(=O)c2ccccc2F)c1 [Compound 22] ... < 4.30
2. Cn1c(=O)[nH]c(=O)c2c1nc(CCSc1ccccc1)n2Cc1ccccc1 [SB711] ... < 4.30
3. Cc1nc2ccc(NC(=O)c3cccc(NS(=O)(=O)c4ccc(F)cc4)c3)cc2s1 [GSK966] ... < 4.30
4. Cc1ccc(S(=O)(=O)Nc2cccc(C(=O)Nc3ccc4nc(C)sc4c3)c2)cc1 [Compound 16] ... < 4.30

Continue with the next molecule.
Q: What measured pIC50 goes with CCc1ccc(S(=O)(=O)Nc2cc(-n3c(C)nc4ccccc4c3=O)ccc2F)s1 [GSK223] ?
Result: < 4.30
